- assay_system: CYP-3A4 (Homo sapiens, UniProt P08684)
- Sequence (P08684 whole entry): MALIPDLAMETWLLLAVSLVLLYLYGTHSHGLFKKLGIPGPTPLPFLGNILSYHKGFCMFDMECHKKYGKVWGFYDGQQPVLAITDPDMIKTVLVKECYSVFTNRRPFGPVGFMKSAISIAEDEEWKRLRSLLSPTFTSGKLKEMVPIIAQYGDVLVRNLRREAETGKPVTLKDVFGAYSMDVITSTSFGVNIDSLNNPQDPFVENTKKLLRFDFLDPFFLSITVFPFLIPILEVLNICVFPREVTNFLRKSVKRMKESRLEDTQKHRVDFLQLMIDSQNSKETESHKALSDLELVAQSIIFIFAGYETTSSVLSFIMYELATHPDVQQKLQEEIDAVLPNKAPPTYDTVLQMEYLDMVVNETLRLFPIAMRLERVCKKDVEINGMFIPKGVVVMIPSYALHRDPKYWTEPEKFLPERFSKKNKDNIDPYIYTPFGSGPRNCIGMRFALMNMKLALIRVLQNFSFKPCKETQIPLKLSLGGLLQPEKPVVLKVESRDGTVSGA
- method_summary: CYP test: inhibition of cytochrome P450 isoenzymes by excipients
- Format: biochemical
reported_endpoint: pIC50
One number for each entry, as −log10 of the molar value.

Please tell me: pIC50 of CCCCCCCC/C=C\CCCCCCCC(=O)OCC [Ethyloleat] , system CYP-3A4 (Homo sapiens, UniProt P08684)?
3.42

###

- assay_system: CYP-2C19 (Homo sapiens)
- Sequence (P33261 whole entry): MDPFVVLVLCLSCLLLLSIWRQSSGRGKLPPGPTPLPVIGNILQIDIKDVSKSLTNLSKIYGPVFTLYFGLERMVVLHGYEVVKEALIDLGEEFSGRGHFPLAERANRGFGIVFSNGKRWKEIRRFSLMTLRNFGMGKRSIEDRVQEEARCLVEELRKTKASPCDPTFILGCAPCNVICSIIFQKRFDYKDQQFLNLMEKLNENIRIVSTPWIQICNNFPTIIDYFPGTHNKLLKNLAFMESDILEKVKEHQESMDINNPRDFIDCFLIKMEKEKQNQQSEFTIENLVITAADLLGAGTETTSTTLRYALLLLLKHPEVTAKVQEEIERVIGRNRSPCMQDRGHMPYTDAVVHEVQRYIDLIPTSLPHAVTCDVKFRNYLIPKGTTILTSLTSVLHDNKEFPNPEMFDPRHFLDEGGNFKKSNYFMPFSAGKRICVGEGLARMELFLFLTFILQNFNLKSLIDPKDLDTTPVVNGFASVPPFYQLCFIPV
- method_summary: CYP test: inhibition of cytochrome P450 isoenzymes by excipients
- Assay type: biochemical
reported_endpoint: IC50

Could you tell me which IC50 is on file for CCCCCCCC/C=C\CCCCCCCC(=O)OCC ?
1050 µM
